- MEASURED ON: T1, recombinant human LRP1 ligand binding cluster II (amino acids 786-1165, C-terminal Fc) (human)
- T1 construct: range 786-1165; Bought from R&D Systems, NS0-expressed; also called rhLRP1 cluster II; hrLRP1 cluster II
- PROTOCOL NOTES: inhibitor pre-incubated with coated LRP1 cluster II-Fc, washed, then RAP d3 added; inhibition of RAP d3 binding
ASSAY ENDPOINT: EC50 (nM)
Report the figure in nM without appending any unit label.

Task: Note down EC50 recorded for mRAPc (N-terminal biotin-GGSGG; intramolecular disulfide between C241 and C315 (mature RAP numbering), Synthetic; also called mRAPc peptide; monomeric peptide) peptide: CGFREELKHFEAKIEKHNHYQKQLEIAHEKLRHAESVGDGERVSRSREKHALLEGRTKELGYTVKKHLQDLSGGC
Output: 17
